Test system: A549
Experiment: Cytotoxicity against human A549 cells after 3 hrs by MTS assay
Assay type: cell-based
Settings: A549, 3 h
pIC50: −log10 of the molar value.
This listing pairs molecules with measured pIC50.
result-type: pIC50

In [3]: df
Out[3]:
                       smiles_representation  comparator   val
 0  CCCCC(CCCC)c1cc[n+](CCCCCCCCCCCC[n+]2ccc(C(CCCC)CCCC)cc2)cc1           =  4.26
 1  c1ccc(CCCc2cc[n+](CCCCCCCCCCCC[n+]3ccc(CCCc4ccccc4)cc3)cc2)cc1           =  4.26
 2  CCCCc1cc[n+](CCCCCCCCCCCC[n+]2ccc(CCCC)cc2)cc1           =  3.67
 3  CC(C)(C)c1cc[n+](CCCCCCCCCCCC[n+]2ccc(C(C)(C)C)cc2)cc1           <  3.46
 4  CC(C)CCc1cc[n+](CCCCCCCCCCCC[n+]2ccc(CCC(C)C)cc2)cc1           <  3.46
 5  C=CCCCc1cc[n+](CCCCCCCCCCCC[n+]2ccc(CCCC=C)cc2)cc1           <  3.46
 6  CC(C)c1cc[n+](CCCCCCCCCCCC[n+]2ccc(C(C)C)cc2)cc1           <  3.46
 7  CCCCCCc1cc[n+](CCCCCCCCCCCC[n+]2ccc(CCCCCC)cc2)cc1           =  4.32
 8  CCCCCc1cc[n+](CCCCCCCCCCCC[n+]2ccc(CCCCC)c(C)c2)cc1C           =  3.91
 9  CCCCC(CCCC)c1cc[n+](CCCCCCCCCCCC[n+]2ccc(C(CCCC)CCCC)c(C)c2)cc1C           =  5.00
10  OCCCc1cc[n+](CCCCCCCCCCCC[n+]2ccc(CCCO)cc2)cc1           <  3.46
11  CCCCCc1cc[n+](CCCCCCCCCCCC[n+]2ccc(CCCCC)cc2)cc1.[Cl-].[Cl-]           =  3.94
12  CC(C)CCCc1cc[n+](CCCCCCCCCCCC[n+]2ccc(CCCC(C)C)cc2)cc1           =  4.27
